# protocol text: ascending single-dose pharmacokinetic study in healthy subjects
# Type: in vivo, human
# condition context: human, plasma; subjects in the first cohort (500 mg oral, 100 mg infusion); read-out: mean absolute bioavailability
reported metric: bioavailability (%)
Numbers only, in %.

Assign bioavailability to the following record: O=c1c2c(c1=O)N(CCP(=O)(O)O)CCCN2 4.3

---

# protocol text: ascending multiple-dose pharmacokinetic study in healthy subjects
# Assay type: in vivo
# condition context: human, plasma, po, 800 mg, Multiple dose administration (day 14), 800 mg q 12 h Oral, fasting, t = 0 to 12 hours (tau), mean ± SD
reported metric: AUC (ng·h/mL)
Answers are plain numbers, in ng·h/mL.

Answer with the recorded AUC for the compound listed here: O=c1c2c(c1=O)N(CCP(=O)(O)O)CCCN2 2180
